This collection of values is drawn from ChEMBL document CHEMBL4513216.

# System: Plasmodium berghei
# test.description: Screen against P. berghei liver stage (PbLuc), transformed with Luciferase, at 10uM
# Type: functional, HepG2
# assay.setup: tested at 10 uM
Out of some 69,000 compounds screened, about 8,600 (12%) showed an effect of 50% or more. This is one part of a sample in which strong results are shown more often than they occur.
Rule: INHIBITION below 40% gives label 1, anything at or above gives label 0.

{"compound": "CCN1CCc2cc(C(=O)N(C)C)c(NCC3CC3)nc2CC1", "class": "label 1"}
{"compound": "CCS(=O)(=O)CC(=O)NC1CCc2nccn2C1 (centres undefined)", "class": "label 1"}
{"compound": "Cc1nnc(Nc2cccc(C3CCN(Cc4ncc[nH]4)CC3)n2)s1", "class": "label 1"}
{"compound": "O=C(NCCNc1cc(N2CCCC2)cnn1)Nc1ccccc1F", "class": "label 0"}
{"compound": "CCc1nnc(Nc2cccc(C3CCCN(CC(C)(C)C)C3)n2)s1 (centres undefined)", "class": "label 1"}
{"compound": "Cn1nc(CN2CCC(c3ccncc3)CC2)c2c(Cl)cccc21", "class": "label 1"}
{"compound": "Cn1cc(CN2CCC3(C2)CN(Cc2ccsc2)C3)cn1", "class": "label 1"}
{"compound": "CC(C)c1cc(C(=O)NCC2(C(N)=O)CCOCC2)nn1C(C)(C)C", "class": "label 0"}
{"compound": "CCc1nn(C)c(Cl)c1CN1CCC(Cc2nncn2C)CC1", "class": "label 1"}
{"compound": "CN1CCCC(CCC(=O)N2CCc3sc(C(=O)N(C)C)cc3C2)C1 (centres undefined)", "class": "label 0"}

Criterion: INHIBITION strictly below 40%. Is it met by O=C(CCn1cncn1)NC1CCc2nccn2C1 (centres undefined) ?
label 1

Criterion: INHIBITION strictly below 40%. Is it met by CN1CCCC(CCC(=O)N2CCc3onc(C(=O)N(C)C)c3C2)C1 (centres undefined) ?
label 1

Criterion: INHIBITION strictly below 40%. Is it met by COCCNc1cc(C2CCCNC2)ccn1 (centres undefined) ?
label 1

Criterion: INHIBITION strictly below 40%. Is it met by c1ccc(CNc2cc(C3CCCNC3)ccn2)nc1 (centres undefined) ?
label 1

Criterion: INHIBITION strictly below 40%. Is it met by `CCOCC(=O)N1CC[C@@H]2O[C@@H](C)C[C@H]2C1` ?
label 0

---

# Tested on: Plasmodium berghei
# test.description: Screen against P. berghei liver stage (PbLuc), transformed with Luciferase, at 10uM
# Assay type: functional, HepG2
# assay.setup: tested at 10 uM
The campaign covered roughly 69,000 compounds. About 8,600 (12%) showed an effect of 50% or more. The sample as a whole holds a higher share of strong results than the screen did.
Reported values of INHIBITION for individual entries
Quick note: give the figure in %, leave out the unit.

{"molecule": "Cc1c(C(=O)N2CCCC(n3nnc4cc(F)ccc43)C2)cnn1C (configuration not stated)", "observation.type": "INHIBITION", "units.of.measure": "%", "test.value": 2.71}
{"molecule": "Cc1cc2c(cc1CN1CCCCC1CCn1ccnc1C)OCO2 (configuration not stated)", "observation.type": "INHIBITION", "units.of.measure": "%", "test.value": 13.7}
{"molecule": "Cn1cc(NC(=O)CNC(=O)N2CCN(c3ccc(F)cc3)CC2)cn1", "observation.type": "INHIBITION", "units.of.measure": "%", "test.value": 9.55}
{"molecule": "O=C(O)c1ccccc1CN1CCC2(Cc3ccccc3CNC2=O)C1 (configuration not stated)", "observation.type": "INHIBITION", "units.of.measure": "%", "test.value": 40}
{"molecule": "N#Cc1ccc(N2CCCN(CCCn3cncn3)CC2)cc1", "observation.type": "INHIBITION", "units.of.measure": "%", "test.value": 9.87}

Return INHIBITION measured with Plasmodium berghei given this molecule: `Cc1cccc(-c2noc(CN3CCC(N4CCNC4=O)CC3)n2)c1`
41.1

Return INHIBITION measured with Plasmodium berghei given this molecule: O=C(c1cc(Cl)c2c(c1)OCO2)N1CCCC(n2cncn2)C1 (configuration not stated)
29.7

Return INHIBITION measured with Plasmodium berghei given this molecule: `CCN1CCN(Cc2nc(CCc3ccccc3)n[nH]2)CC1`
56.5

Return INHIBITION measured with Plasmodium berghei given this molecule: `Cc1c(NC(=O)CN2CCN(C3CCCC3)C(=O)C2)cnn1C`
7.85

Return INHIBITION measured with Plasmodium berghei given this molecule: COC(=O)c1ccc(C(=O)N2CCCC(Nc3ccc(F)cc3)C2)cc1 (configuration not stated)
-6.88

Return INHIBITION measured with Plasmodium berghei given this molecule: O=C(NCCCn1cccn1)NCC(c1ccco1)N1CCCC1 (configuration not stated)
-49.5

Return INHIBITION measured with Plasmodium berghei given this molecule: CC(C)c1cc(C(=O)NCCN2CCCCC2CO)on1 (configuration not stated)
15

Return INHIBITION measured with Plasmodium berghei given this molecule: `O=C(c1ccc(F)cc1)N(CCCO)S(=O)(=O)c1cccs1`
67.4

Return INHIBITION measured with Plasmodium berghei given this molecule: `c1coc(CN2CCC3(CC2)COCCN(CCN2CCCC2)C3)c1`
0.923

Return INHIBITION measured with Plasmodium berghei given this molecule: C=Cc1ccc(C(=O)N2CCCC(Nc3ccc(OC)cc3)C2)cc1 (configuration not stated)
73.5

Return INHIBITION measured with Plasmodium berghei given this molecule: `CCOC(=O)CCCc1ccc2c(c1)CC(=O)N2`
3.4

Return INHIBITION measured with Plasmodium berghei given this molecule: Cc1nccn1CCC1CCCCN1Cc1ccc(N(C)C)nc1 (configuration not stated)
-38.9

Return INHIBITION measured with Plasmodium berghei given this molecule: Cc1c[nH]c(CN2CCCCC2CCc2cccc(O)c2)c(C)c1=O (configuration not stated)
39.9

Return INHIBITION measured with Plasmodium berghei given this molecule: Cc1c[nH]c(CN2CCCCC2CCn2ccnc2C)c(C)c1=O (configuration not stated)
53.9

Return INHIBITION measured with Plasmodium berghei given this molecule: CC(=O)NCC1(COc2cnccn2)C[C@@H](O)[C@@H](O)C1 (some centres not stated)
-3.52

Return INHIBITION measured with Plasmodium berghei given this molecule: Cc1c(C2CC2)n[nH]c1NC(=O)C1CCCN(C(=O)NCC(C)C)C1 (configuration not stated)
35.7

Return INHIBITION measured with Plasmodium berghei given this molecule: `O=C1NCCN1C1CCN(Cc2nc(-c3ccccc3)no2)CC1`
92.3

Return INHIBITION measured with Plasmodium berghei given this molecule: `Cn1ccnc1CN1CC[C@H](O)[C@@H](n2ccc(=O)[nH]c2=O)CC1`
22

Return INHIBITION measured with Plasmodium berghei given this molecule: CC(NCc1cc(O)c2cccc(F)c2n1)c1ccccc1O (configuration not stated)
25

Return INHIBITION measured with Plasmodium berghei given this molecule: `O=C(O)CCCc1ccc2c(c1)CC(=O)N2`
24.2

---

# Tested on: Plasmodium berghei
# test.description: Screen against P. berghei liver stage (PbLuc), transformed with Luciferase, at 10uM
# Type: functional, HepG2
# assay.setup: tested at 10 uM
Hit rate of the full screen: of about 69,000 compounds, about 8,600 (12%) showed an effect of 50% or more. The sample holds strong results, similar compounds and a random draw of the others, so the mix is not that of the screen.
Reported values of INHIBITION for individual entries

{"compound": "CC(C)c1nnc2n1CC(CNCc1nnc(C(C)(C)C)o1)CC2 (stereo unspecified)", "test.value": "3.77%"}

// query INHIBITION value for entry `CCS(=O)(=O)N1CCC2(CN(C(=O)c3cn(C)cn3)C2)C1`
-28.2%

// query INHIBITION value for entry CCS(=O)(=O)N1CCCC2(CCCN2C(=O)c2cscn2)C1 (stereo unspecified)
4.02%

// query INHIBITION value for entry Cc1nc(CN(C)C2CCN(Cc3cccc4c3OCCO4)C2)no1 (stereo unspecified)
29.4%

// query INHIBITION value for entry `O=C(CSC1=NS(=O)(=O)c2cc(F)ccc2N1)Nc1ccc(Cl)c(Cl)c1`
57.3%

// query INHIBITION value for entry `CC(=O)N1CCC(c2cccc(Oc3ccccc3)n2)CC1`
9.98%

// query INHIBITION value for entry CCS(=O)(=O)N1CCCC2(CCCN2C(=O)c2cn(C)cn2)C1 (stereo unspecified)
61.9%

---

# System: Plasmodium berghei
# test.description: Screen against P. berghei liver stage (PbLuc), transformed with Luciferase, at 10uM
# Format: functional, HepG2
# assay.setup: tested at 10 uM
Out of some 69,000 compounds screened, about 8,600 (12%) showed an effect of 50% or more. The list comes from a sample in which strong results are over-represented; it also holds close analogues and randomly drawn compounds.
Use INHIBITION to assign classes; range list: lowest: < 10%; middle: ≥ 10% and < 40%; highest: ≥ 40%

Some solved entries appear below for comparison.
{"compound": "Cn1ccc(CN2CCC(Cc3ccccc3)CC2)cc1=O", "class": "lowest"}
{"compound": "CN1CCN(C(=O)Cn2nc(C(F)(F)F)c(Br)c2C2CC2)CC1", "class": "middle"}
{"compound": "CCN(CC1CCCO1)C(=O)Nc1cccc(N2CCOCC2)c1 (centres undefined)", "class": "highest"}
{"compound": "COCC1CN(Cc2ccc3c(c2)OCO3)Cc2ncn(C)c21 (centres undefined)", "class": "middle"}
{"compound": "CCCOCCn1ncc(N2CCCC2)cc1=O", "class": "lowest"}
{"compound": "CC(C)CNC(=O)c1ccc2c(c1)nc1n2CCN(Cc2ccco2)C1", "class": "middle"}

Please turn your attention to the following entry.
Note: place this compound into its band. Item: CC(C)COCC1CN(Cc2ccoc2)Cc2ncn(C)c21 (centres undefined)
lowest
